target_desc: GBA (Homo sapiens)
Construct: HEK293T cells that contain endogenous GBA; endogenous in cells; host or cells: HEK293T (ATCC CRL-3216) overexpressing GBA2 and GBA3
Sequence (P04062 40-536): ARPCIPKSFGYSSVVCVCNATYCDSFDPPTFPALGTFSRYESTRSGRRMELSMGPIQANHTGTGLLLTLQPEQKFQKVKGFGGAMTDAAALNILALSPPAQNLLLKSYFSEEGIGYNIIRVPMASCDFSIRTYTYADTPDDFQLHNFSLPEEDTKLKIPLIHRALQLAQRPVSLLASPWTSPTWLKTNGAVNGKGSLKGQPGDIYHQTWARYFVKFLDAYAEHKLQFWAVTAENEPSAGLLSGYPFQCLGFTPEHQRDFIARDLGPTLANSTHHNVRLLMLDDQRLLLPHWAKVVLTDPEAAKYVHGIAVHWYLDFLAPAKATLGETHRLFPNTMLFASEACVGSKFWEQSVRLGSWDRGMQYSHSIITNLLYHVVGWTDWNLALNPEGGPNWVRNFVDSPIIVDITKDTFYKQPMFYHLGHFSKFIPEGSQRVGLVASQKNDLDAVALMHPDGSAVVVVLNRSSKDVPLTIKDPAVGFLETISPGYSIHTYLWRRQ
assay_summary: Competitive ABPP (cABPP) with ABP 10 in HEK293T cell lysates, GBA
Assay type: biochemical
run_parameters: cell lysate, 30 min incubation
assay_metric: concentration competing ABP 10 labeling of GBA

molecule: OC[C@@H]1[C@@H](O)[C@H](O)[C@@H](O)[C@@H]2O[C@H]12
value_observed: 0.1 to 1 µM
--
molecule: O[C@@H]1[C@@H](O)[C@H](O)C[C@H]2N[C@@H]12
value_observed: 1 to 10 µM

Each molecule below has a recorded value; state its concentration competing ABP 10 labeling of GBA.
1. OC[C@@H]1[C@@H](O)[C@H](O)[C@@H](O)[C@@H]2N[C@H]12 [compound 4, cyclophellitol aziridine, reference compound]
2. O[C@@H]1[C@@H](O)[C@H](O)C[C@H]2O[C@@H]12

Reply text:
1: 0.1 to 1 µM; 2: 10 to 100 µM
